# tgt: Angiotensin II receptor (Rattus norvegicus, UniProt P29089+P25095+P35351)
# method: Tested for inhibition of radioligand [Sar1,Ile5,8]AII binding to angiotensin II receptor in rat brain
# Assay type: tissue-based
Known Ki of a selection of molecules
Give just the number in nM; leave the unit off.

# example entries with known answers
chemical_structure=CNCC(=O)N[C@@H](CCCN=C(N)N)C(=O)N[C@H](C(=O)N[C@@H](Cc1ccc(O)cc1)C(=O)N[C@H](C(=O)N[C@@H](Cc1c[nH]cn1)C(=O)N1CCC[C@H]1C(=O)N[C@@H](Cc1ccc(-c2ccccc2)cc1)C(=O)O)C(C)C)C(C)C recorded_number=1
chemical_structure=CNCC(=O)N[C@@H](CCCN=C(N)N)C(=O)N[C@H](C(=O)N[C@@H](Cc1ccc(O)cc1)C(=O)N[C@H](C(=O)N[C@@H](Cc1c[nH]cn1)C(=O)N1CCC[C@H]1C(=O)N[C@@H](C(=O)O)C(c1ccccc1)c1ccccc1)C(C)C)C(C)C recorded_number=1.64
chemical_structure=CNCC(=O)N[C@@H](CCCN=C(N)N)C(=O)N[C@H](C(=O)N[C@@H](Cc1ccc(O)cc1)C(=O)N[C@H](C(=O)N[C@@H](Cc1c[nH]cn1)C(=O)N1CCC[C@H]1C(=O)N[C@H](C(=O)O)C(c1ccccc1)c1ccccc1)C(C)C)C(C)C recorded_number=0.85
chemical_structure=CNCC(=O)N[C@@H](CCCN=C(N)N)C(=O)N[C@H](C(=O)N[C@@H](Cc1ccc(O)cc1)C(=O)N[C@H](C(=O)N[C@@H](Cc1c[nH]cn1)C(=O)N1CCC[C@H]1C(N)=O)C(C)C)C(C)C recorded_number=9310

(Q) Fill in reported Ki for this entry: CNCC(=O)N[C@@H](CCCN=C(N)N)C(=O)N[C@H](C(=O)N[C@@H](Cc1ccc(O)cc1)C(=O)N[C@H](C(=O)N[C@@H](Cc1c[nH]cn1)C(=O)N1CCC[C@H]1C(=O)NC1(C(=O)O)Cc2ccccc2C1)C(C)C)C(C)C
(A) 1.82

(Q) Note down Ki recorded for CNCC(=O)N[C@@H](CCCN=C(N)N)C(=O)N[C@H](C(=O)N[C@@H](Cc1ccc(O)cc1)C(=O)N[C@H](C(=O)N[C@@H](Cc1c[nH]cn1)C(=O)N1CCC[C@H]1C(=O)N[C@H](Cc1ccc(-c2ccccc2)cc1)C(=O)O)C(C)C)C(C)C
(A) 0.46

Entry source: ChEMBL document CHEMBL1124659
